assay.system: Dipeptidyl amino peptidase type IV (DPP IV)
test.description: cell-based or functional assay
Where no end group is shown, it is not given here. [ ]: non-standard residue; d: D form. The star is where a group is joined. boroPro = OB(O)[C@@H]1CCCN1*
measured.metric: IC50, pH 2 (Tetrapeptide Prodrugs) (nM)

[[record]]
binder = "GPV[boroPro] [GlyProValboroPro]"
quantitative_readout = 17

[[record]]
binder = "APV[boroPro] [AlaProValboroPro]"
quantitative_readout = 20

